- Test system: Caco-2
- ASSAY NAME: relative viability EC50 (midpoint between 100% and the lowest measured viability); higher = less toxic
- EXPERIMENTAL CONTEXT: 72 h
MEASUREMENT NAME: relative viability EC50

Some solved entries appear below for comparison.
[[record]]
molecule = "Cc1cccc(C)c1NC(=O)c1ccc(N)cc1 [ameltolide]"
result = "> 10 µM"

[[record]]
molecule = "CC(C)[C@]12O[C@H]1[C@@H]1O[C@]13[C@]1(O[C@H]1C[C@H]1C4=C(CC[C@@]13C)C(=O)OC4)[C@@H]2O [triptolide]"
result = "0.0058 µM"

[[record]]
molecule = "C[C@H](CCC(=O)O)[C@H]1CC[C@H]2[C@@H]3CC[C@@H]4C[C@H](O)CC[C@]4(C)[C@H]3C[C@H](O)[C@]12C [deoxycholic-acid]"
result = "> 10 µM"

[[record]]
molecule = "Nc1nc(/C(=C/CC(=O)O)C(=O)N[C@@H]2C(=O)N3C(C(=O)O)=CCS[C@H]23)cs1 [ceftibuten]"
result = "> 10 µM"

[[record]]
molecule = "C=CC1=C(C)c2cc3[nH]c(cc4nc(cc5[nH]c(cc1n2)c(C)c5CCC(=O)O)C(CCC(=O)O)=C4C)c(C)c3C=C [protoporphyrin-IX]"
result = "> 10 µM"


Record lookup: for Caco-2, what relative viability EC50 belongs to COc1ccc(C2CNC(=O)NC2)cc1O[C@H]1C[C@@H]2CC[C@H]1C2 [atizoram] ?
> 10 µM

Record lookup: for Caco-2, what relative viability EC50 belongs to Cc1cc(=O)[nH]c(=S)[nH]1 [methylthiouracil] ?
> 10 µM

Record lookup: for Caco-2, what relative viability EC50 belongs to Oc1ccc2c3c1O[C@H]1[C@@H](O)CC[C@@]4(O)[C@@H](C2)N(CC2CCC2)CC[C@]314 [nalbuphine] ?
> 10 µM

Record lookup: for Caco-2, what relative viability EC50 belongs to N#CCC(=O)NN [cyacetacide] ?
> 10 µM

Record lookup: for Caco-2, what relative viability EC50 belongs to COc1ccc(-c2cc3nccn3c(Nc3ncccc3C(N)=O)n2)cc1OC [BAY-61-3606] ?
1.36 µM

====

- System: Caco-2
- ASSAY NAME: cell viability relative to DMSO; higher = less toxic
- EXPERIMENTAL CONTEXT: 72 h; 1 nM
MEASUREMENT NAME: cell viability (%)
Field: numeric (%). Do not append units.

[[record]]
compound = "CS(=O)(=O)c1cc(F)cc2c3c(n(Cc4ccc(Cl)cc4)c12)[C@@H](CC(=O)O)CC3"
target_or_test_system = "Caco-2"
measurement_name = "cell viability"
result = 95.4


// returns reported cell viability for input `CCCCn1c(=O)c2[nH]c(C34CC5CC(CC3C5)C4)nc2n(CCCO)c1=O`
96.5

====

Catalogue of cell viability readings, one per entry.
- Test system: U2OS
- ASSAY NAME: cell viability relative to DMSO; higher = less toxic
- EXPERIMENTAL CONTEXT: 72 h; 10 nM
Field: numeric (%). Do not append units.

Some solved entries appear below for comparison.
[[record]]
molecule = "O=C(c1ccc(OCCN2CCCCC2)cc1)c1c(-c2ccc(O)cc2)sc2cc(O)ccc12"
result = 91.3

[[record]]
molecule = "COc1ccc(-c2csc(NC(=O)[C@H]3CCCCN3S(=O)(=O)c3ccc(C)cc3)n2)cc1"
result = 98.1

[[record]]
molecule = "O=C(O)c1cc(O)c2c(c1)C(=O)c1cccc(O)c1C2=O"
result = 98.4

[[record]]
molecule = "CCNC(=O)NS(=O)(=O)c1sc(CC(C)C)cc1-c1ccc(Cn2c(-c3ccccc3)nc(OC)c2C=O)cc1"
result = 99.7

[[record]]
molecule = "COC1=C(OC)C(=O)C(CCCCCCCCCCO)=C(C)C1=O"
result = 105


// returns reported cell viability for input `COc1cc2nc(N3CCCN(C)CC3)nc(NC3CCN(Cc4ccccc4)CC3)c2cc1OC`
100

// returns reported cell viability for input `O=C(O)CCn1c2c(c3ccccc31)C[C@H](NS(=O)(=O)c1ccc(F)cc1)CC2`
98.4

// returns reported cell viability for input Cc1ccccc1C(C(=O)NC1CCCCC1)N(C(=O)Cn1ccnc1C)c1cccc(F)c1 (stereo not drawn)
103
